system: MS2 coat protein; experiment: apparent KD of MS2 coat protein; designed switch direction (-1 OFF switch, 1 ON switch): -1; higher = weaker reporter binding; conditions: Eterna round: R95; input ligand: microRNA oligo, concentration not stated
Metric Name: apparent KD of MS2 coat protein (nM)

- CAGGGUAGAGGAUAUACGUAGGUACAGAUCCGUGUGAUCCUACAUGAGGAUCACCCAUGUAGAAGGCUAGCCUG [LRO-Excl2-06] (puzzle: Exclusion 2): 332
- AUCAUGUGAGGAUAUGUGAUCAACCUUCUGUAUAGAUGAUUACAGAAGGCACAUGAGGAUCACCCAUGUAGAUC [Ex4 - 3 - 21] (puzzle: Exclusion 4): 55.7
- GUGUACAGAGGAUAUACACGAAUCUAGCGAAGCUAGGUUUGACAUGAGGAUCACCCAUGUAGAAGGCUGUACAC [Dot plot directed A detuned for Vienna 1] (puzzle: Exclusion 2): 16.7

---

test system: MS2 coat protein; test: apparent KD of MS2 coat protein; higher = weaker reporter binding; settings: Eterna round: R107; input ligand: none
The following sequences are shown together with reported apparent KD of MS2 coat protein values.
Metric Name: apparent KD of MS2 coat protein (µM)

- GCACGACAUGAGGAUCACCCAUGUGCAGAUACCAGUAAUGUAUGUUACCCUUGGCAGCUGAGUAGGUCUGGAGGGCUAUAGGUUU [Same State Theophylline A GF13]: 0.0139
- AAUUAUUACGGAAGGAGCGUCUUUCGGCUCAAACAUGAGGAUCACCCAUGUGAUUUUGAAUGACAGGUAGGUCGCCGAUAUUUGA [JR_AAArginiB_Sub030]: 0.0264
- AUACAUGAGGAUCACCCAUGUCAUUCAGAAGGAGCGUCAUUUUAGACAGGUAGGUCGCUGUUAUUUUUAUUAUUCUUUAUGUUUU [JR_Nu_ExcArginiA_Sub025]: 0.0201
- UUAUUUAUAGGGUAUAUCAGAUUAACUGAAGGAGCGUGGUAAUUCACAGGUAGGUCGCAGAUGGAACAUGAGGAUCACCCAUGUU [JR_ExcArginiA_Sub015]: 0.0192
- AACAUGAGGAUCACCCAUGUCCUCGUGAUUCGAGGACCGGUACGGCCGCCACUCGGUCCUCGCGAGGUGGAGUCAAAGACUCCAA [Omei Trp A SS A v3]: 0.384
- AGUCUUAAUGGAAGGAGCGCAGUCAUAACAUGAGGAUCACCCAUGUCGAGGUGAGGGUCAUUGCAGGUAGGUCGCCAUACUAGAA [Same State - Arginine B (Freestyle 1)]: 0.153

---

Recorded apparent KD of MS2 coat protein by entry
system: MS2 coat protein; assay: apparent KD of MS2 coat protein; designed switch direction (-1 OFF switch, 1 ON switch): -1; higher = weaker reporter binding; conditions: input ligand: microRNA oligo, concentration not stated
Metric Name: apparent KD of MS2 coat protein (nM)

• UCUCGCAGGCAAGGAUAUCCUACAUUGUUCUGGCCCGGGCAUGUUACAUGAGGAUCACCCAUGUGGGAGAAGGUGCGCCACGGC [Design 33] (Eterna round: R96, puzzle: Exclusion NG 2) = 175
• UUAAAUCAUGUAGGAUAUGCGUGGCGAAGCUAUGCAGAAGGACAUGAGGAUCACCCAUGUUCUAGCGUCUGAGUACAGAUGCAA [Mat - Exclusion NG 1 - Mod of JL - D2] (Eterna round: R96, puzzle: Exclusion NG 1) = 17.4
• AGGUGCUUCUGGAAACAUGAGGAUCACCCAUGUUGAGUUAGCGAGGAUAUCGGUAACCAUUGUUAUGAGAAGGCGCAAACCAGA [Ex NG3 #37] (Eterna round: R96, puzzle: Exclusion NG 3) = 11.4
• UCACGGGUUUGAGGAUAUAUUAUUAUUAUUUAAAUAGAAGGCAAAGAAAUUGUUAUUUCACUAUACAUGAGGAUCACCCAUGUU [JR_ExcNG1_Sub088] (Eterna round: R96, puzzle: Exclusion NG 1) = 19.5
• GCACGGAUCGUAGGAUAUCAUUGCGAUUAGCUAUGAGAAGGACGACAUGAGGAUCACCCAUGUCCUCUAAUUAGCCUUCCGUGC [Eli exng1 - 017] (Eterna round: R96, puzzle: Exclusion NG 1) = 21.8
• UGAUCUAGCGGAGGAUAUACAUGAGGAUCACCCAUGUAAAUCGCUUUACCGUAGUGAAGCAUCAUGUAGAAGGCCGCUAGAUCU [MOD3 ENG2 3.62 by JL] (Eterna round: R96, puzzle: Exclusion NG 2) = 480
• ACAUGAGGAUCACCCAUGUGAAAACAAUGGCUGACUUUGAGAUAGGAUAUAUGUGCAUAUCAAACAUAGAAGGGUCAUUACUGG [Deportation 90 - Jieux - Exclusion NG 3] (Eterna round: R96, puzzle: Exclusion NG 3) = 25.9
• CCCUCACAUGAGGAUCACCCAUGUCAGGAUAUUCGAACGGUGUGUUUUUGGCCAGUUGGAAGAAGGGACAUAAA [Riinesbe] (Eterna round: R96, puzzle: Exclusion 1) = 29
• CCUGAGGUUUGGUAGAAAACAUGAGGAUCACCCAUGUAUGUGCAGGAUAUCGACCGGCUCGCUGCCGAGAAGGGCAUCUACAUA [Eternabot solution 31] (Eterna round: R96, puzzle: Exclusion NG 3) = 24.8
• GGUGCUGGCGCGUCGGUGUUGGUGCAAUAAGCUUGUGAAACAUGAGGAUCACCCAUGUCCUCAUAAGCUCGUCUUAU [salish99_TOv2_r2_086] (Eterna round: R96, puzzle: Sensor v3, turn-off variant 2) = 334
• UGAGUGCUGCGAGGAUAUACAUGAGGAUCACCCAUGUAAUCGUGUGAGGCAAAGCCUCACACGAAGUAGAAGGCGCAGUACUCU [Mat - Exclusion NG 2 - Mod of JL - D17] (Eterna round: R96, puzzle: Exclusion NG 2) = 11.4
• ACAUGUGUUGUAGGAUAUAGGAUACAUGAGGAUCACCCAUGUGGAUUCAUGUCUAAGGAAGCGUCCUAGAAGGACGACAACAUG [Ex NG2 #25] (Eterna round: R96, puzzle: Exclusion NG 2) = 21.6
• UUAAGGGACUGAGGAUAUACAUGAAUUAUGUUUGUAGAAGGCAGAUUGUUAGUUUAUUCACUAUACAUGAGGAUCACCCAUGUU [JR_ExcNG1_Sub019] (Eterna round: R96, puzzle: Exclusion NG 1) = 17.1
• ACAUGAGGAUCACCCAUGUAAACAUAAUGGCUCAUGUAGAGUCAGGAUAUGCGUGGCGAACUCGCGCAGAAGGGACAAGACUGG [Deportation 23 - Jieux - Exclusion NG 3] (Eterna round: R96, puzzle: Exclusion NG 3) = 20.6
• UUAAAUCAUGUAGGAUAUGCUUUGCGAAGCGAGGCAGAAGGACAUGAGGAUCACCCAUGUGCUAGCGUCCGCGUACGGAUGCAA [Mat - Exclusion NG 1 - Mod of JL - D61] (Eterna round: R96, puzzle: Exclusion NG 1) = 57.3
• CAAGCUUUGCGAGGAUAUGAUGGCCUAUAUGCCUCAGAAGGCGCAGAUACUUGAGGAUCACCCAAGUGAUGCAAAUACGAAAAU [Mutated MS2 EX1.17] (Eterna round: R96, puzzle: Exclusion NG 1) = 17.4
• GUCGUGCGGCAGUGCUGUACGAGUACAUGAGGAUCACCCAUGUAGGAUAUGGUUCGUUUUGCGUGCUAGAAGGGCGUGCGUUUA [Excl-NG3-LRO19] (Eterna round: R96, puzzle: Exclusion NG 3) = 18.2

---

tested on: K4 kissing-loop RNA reporter; experiment: apparent KD of K4 kissing-loop reporter; higher = weaker reporter binding; conditions: Eterna round: R107; input ligand: tryptophan 2.4 mM;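 also: bound reporter read as fluorescence of individual clusters on recovered sequencing chips by microscopy, with normalized cluster intensities fitted with a binding model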
List of apparent KD of K4 kissing-loop reporter values.
Metric Name: apparent KD of K4 kissing-loop reporter

* UAACUUGCAGUGAUGUUGCAAGAACUGGAUACCAGCAUGGAAACAUGCCCUUGGCAGCCAGAAGCUGGCUGCUUGUAAUGUCAGC [Design6] | 138 nM
* AUUCUGUUUUUAAUGUUUAUUGUAUAAUGGCAGGAUAUCGUAGAAGCGAGAAGGGCUUUUAUGCGUUAUGAGUGAUGUUUGUAGG [dhhyfvmullin] | 270 nM
* GGGCCUAUUGAUGCUGGAGCAAUUCUGGAAGGAGCGCUCAAAGGAGCAGGUAGGUCGCCAGUAUGCAAGGGCAGUGAUGUUGCCC [Ersoarxe] | 189 nM
* AUUUUCAUUUUAUUAUAUAACUUUUCAGAAGGAGCGUGGAAGUUCACAGGUAGGUCGCUGAAUAUUGGACUAGUGAUGUUAGUUA [JR_Nu_SSArginiA_Sub022] | 207 nM
* UGAGGAGAAUAUGAUACCAGCAGAGAGAGAGAGGAAGUAUAGUGAUGUUAUAUGAGAUAAUGCCCUUGGCAGCAUAAGAAGAAGG [#19 K4 Theophylline B Same State] | 145 nM
* ACUGAGCAUGCGGCCGCCACUUCAGAACGUCGCCCAGAGGGCGACGCCUCCGCAGUGAUGUUGUGGAGGACCGGGCAUGUUCAGA [Omei KL Tryp B Exc A v5] | 420 nM

// data source = the supplement of paper PMC9170038
